- target_desc: UniProtKB Q923J1
- procedure_text: Inhibition of Tet-induced Flag-tagged mouse TRPM7 expressed in HEK293 cells assessed as inhibition of channel-mediated cell death in presence of Mg2+ incubated for 24 to 48 hrs by propidium iodide uptake assay
- Format: cell-based
- Design: concentration or dose not given beside the values
- run_parameters: concentration not given here
endpoint: inhibition

- item_smiles: "CSc1nnc(CN2C(=O)CSc3ccc(C(F)(F)F)cc32)n1C"
  result: "< 30%"
- item_smiles: "CN1CCN(NC(NC(=O)c2cccnc2)(C(F)(F)F)C(F)(F)F)CC1"
  result: "< 30%"
- item_smiles: "O=C(/C=N/O)Nc1ccccc1F"
  result: "< 30%"

* * *

- target_desc: Transient receptor potential cation channel subfamily M member 7 (Mus musculus) (UniProt Q923J1)
- Sequence (Q923J1 whole entry): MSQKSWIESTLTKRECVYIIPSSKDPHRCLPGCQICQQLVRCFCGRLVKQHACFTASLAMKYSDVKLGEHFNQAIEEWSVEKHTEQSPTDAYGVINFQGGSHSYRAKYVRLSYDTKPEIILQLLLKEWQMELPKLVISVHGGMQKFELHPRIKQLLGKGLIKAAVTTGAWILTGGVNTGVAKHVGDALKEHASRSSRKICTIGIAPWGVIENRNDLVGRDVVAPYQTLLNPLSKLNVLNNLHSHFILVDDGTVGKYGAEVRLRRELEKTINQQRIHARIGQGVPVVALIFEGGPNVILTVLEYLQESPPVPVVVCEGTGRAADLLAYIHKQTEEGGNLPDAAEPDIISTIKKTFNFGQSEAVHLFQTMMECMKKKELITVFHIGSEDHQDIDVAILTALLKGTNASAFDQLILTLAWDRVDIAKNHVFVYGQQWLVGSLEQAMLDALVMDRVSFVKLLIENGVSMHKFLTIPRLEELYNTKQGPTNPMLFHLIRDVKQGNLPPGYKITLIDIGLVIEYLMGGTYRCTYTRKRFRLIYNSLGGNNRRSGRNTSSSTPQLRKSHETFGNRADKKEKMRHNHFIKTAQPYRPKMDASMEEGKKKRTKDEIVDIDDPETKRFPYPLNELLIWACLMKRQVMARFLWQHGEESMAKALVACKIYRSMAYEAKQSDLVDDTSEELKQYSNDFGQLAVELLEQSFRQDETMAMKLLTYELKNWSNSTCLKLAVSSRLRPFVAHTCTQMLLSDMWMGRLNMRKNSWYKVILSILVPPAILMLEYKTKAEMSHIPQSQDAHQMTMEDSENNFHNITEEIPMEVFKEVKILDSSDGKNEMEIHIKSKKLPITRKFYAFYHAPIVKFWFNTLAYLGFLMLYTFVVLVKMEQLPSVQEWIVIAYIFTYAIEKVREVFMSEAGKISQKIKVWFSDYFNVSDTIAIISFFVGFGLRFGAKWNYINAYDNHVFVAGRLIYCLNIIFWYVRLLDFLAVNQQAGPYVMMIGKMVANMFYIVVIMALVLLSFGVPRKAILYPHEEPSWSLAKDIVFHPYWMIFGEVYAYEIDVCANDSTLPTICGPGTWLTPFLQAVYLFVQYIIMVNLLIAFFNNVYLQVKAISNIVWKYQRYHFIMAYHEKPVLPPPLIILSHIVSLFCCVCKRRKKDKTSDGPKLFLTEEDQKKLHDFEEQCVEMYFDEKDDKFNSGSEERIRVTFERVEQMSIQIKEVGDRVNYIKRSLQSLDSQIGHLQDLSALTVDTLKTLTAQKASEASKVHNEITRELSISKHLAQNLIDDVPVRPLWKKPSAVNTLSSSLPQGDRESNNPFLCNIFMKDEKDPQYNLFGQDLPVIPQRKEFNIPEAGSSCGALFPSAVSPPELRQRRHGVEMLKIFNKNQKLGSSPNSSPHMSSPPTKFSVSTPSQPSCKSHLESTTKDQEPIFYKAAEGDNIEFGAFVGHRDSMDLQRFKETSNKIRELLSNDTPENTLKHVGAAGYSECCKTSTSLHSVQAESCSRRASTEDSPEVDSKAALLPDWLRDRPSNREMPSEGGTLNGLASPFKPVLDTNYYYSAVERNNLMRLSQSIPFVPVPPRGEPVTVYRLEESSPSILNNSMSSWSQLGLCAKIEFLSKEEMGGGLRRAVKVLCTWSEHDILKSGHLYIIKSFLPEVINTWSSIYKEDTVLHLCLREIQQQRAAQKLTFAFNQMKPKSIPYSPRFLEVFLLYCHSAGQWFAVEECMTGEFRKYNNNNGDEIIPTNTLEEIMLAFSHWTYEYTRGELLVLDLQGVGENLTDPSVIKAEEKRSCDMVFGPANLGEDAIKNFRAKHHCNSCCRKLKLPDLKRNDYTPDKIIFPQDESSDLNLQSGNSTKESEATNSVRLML
- procedure_text: Inhibition of Tet-induced Flag-tagged mouse TRPM7 expressed in HEK293 cells assessed as inhibition of channel-mediated cell death in presence of Mg2+ incubated for 24 to 48 hrs by propidium iodide uptake assay
- Assay type: cell-based
- Parameters: concentration or dose not given beside the values
- run_parameters: concentration not given here

- compound: "[O-][S+](c1ccc(Cl)cc1)c1ccc(-c2ccccn2)s1 (stereo not drawn)"
  inhibition: "< 30%"
- compound: "Cc1c(-c2nc(-c3ccc(C(C)(C)C)cc3)no2)n(C)oc1=O"
  inhibition: "< 30%"
- compound: "c1ccc(/N=c2/[n-]n(-c3ccccc3)c[n+]2-c2ccccc2)cc1"
  inhibition: "< 30%"

* * *

- target_desc: Transient receptor potential cation channel subfamily M member 7 (Mus musculus)
- procedure_text: Inhibition of Tet-induced Flag-tagged mouse TRPM7 expressed in HEK293 cells assessed as inhibition of channel-mediated cell death in presence of Mg2+ incubated for 24 to 48 hrs by propidium iodide uptake assay
- Type: cell-based
- Set-up: concentration or dose not given beside the values
- run_parameters: concentration not given here
Listed next: entries and their corresponding inhibition.

- compound: "CCOC(=O)c1ccc2c(c1)CC/C(=C\\c1cccc(C(F)(F)F)c1)C2=O"
  unit_spec: "%"
  operator_symbol: "<"
  inhibition: 30
- compound: "Cc1ccc(C(=O)Nc2ccc3c(c2)CS(=O)(=O)C3)cc1"
  unit_spec: "%"
  operator_symbol: "<"
  inhibition: 30
- compound: "Cc1c(C)c(C)c(CN2CCOC(c3ccccc3)C2C)c(C)c1C (stereo not drawn)"
  unit_spec: "%"
  operator_symbol: "<"
  inhibition: 30
- compound: "O=C(N/C=C/c1cccs1)Nc1ccc(Cl)cc1"
  unit_spec: "%"
  operator_symbol: "<"
  inhibition: 30
- compound: "CC12CCC(C(=O)N3CCSCC3)(OC1=O)C2(C)C (stereo not drawn)"
  unit_spec: "%"
  operator_symbol: "<"
  inhibition: 30
- compound: "O=C(Nc1ccc(F)cc1F)c1cc(Cl)cc(Cl)c1O"
  unit_spec: "%"
  operator_symbol: "<"
  inhibition: 30
- compound: "N=C(NS(=O)(=O)c1cc(Cl)c(Oc2ccc([N+](=O)[O-])cc2Cl)c(Cl)c1)c1cccnc1"
  unit_spec: "%"
  operator_symbol: "="
  inhibition: 70
- compound: "CCOC(=O)c1cc2c(NC(=O)c3ccc(Cl)cc3)c(C(=O)OCC)sc2nc1C(F)(F)F"
  unit_spec: "%"
  operator_symbol: "<"
  inhibition: 30
- compound: "O=C(NCc1cccs1)c1ccccc1"
  unit_spec: "%"
  operator_symbol: "<"
  inhibition: 30
- compound: "Cc1ccc(C(=O)Nc2ccc(Oc3ccc(C(C)(C)C)cc3)nc2)cc1"
  unit_spec: "%"
  operator_symbol: "="
  inhibition: 70
- compound: "COc1ccc(-c2[nH]ncc2CN2CCN(c3ccc(F)cc3)CC2)cc1"
  unit_spec: "%"
  operator_symbol: "<"
  inhibition: 30
- compound: "Cc1csc(-c2nc(-c3ccc(Cl)cc3)no2)c1Cl"
  unit_spec: "%"
  operator_symbol: "<"
  inhibition: 30
- compound: "c1ccc2c(CN3CCN(Cc4ccc5c(c4)OCO5)CC3)c[nH]c2c1"
  unit_spec: "%"
  operator_symbol: "="
  inhibition: 60
- compound: "CCOC(=O)C(=CNc1cc(OC)cc(C(F)(F)F)c1)C(=O)OCC"
  unit_spec: "%"
  operator_symbol: "="
  inhibition: 70
- compound: "N#CC1=C(N)Oc2c3c(c4ccccc4c2C1c1ccc(C(F)(F)F)cc1)C(c1ccc(C(F)(F)F)cc1)C(C#N)=C(N)O3 (stereo not drawn)"
  unit_spec: "%"
  operator_symbol: "<"
  inhibition: 30
- compound: "N#CC(C#N)=CNc1cc(C(F)(F)F)ccc1N1CCc2ccccc2C1"
  unit_spec: "%"
  operator_symbol: "="
  inhibition: 50
- compound: "O=C(Oc1ccc(Oc2ccccc2)cc1)N1CCC(OC(=O)n2ccnc2)CC1"
  unit_spec: "%"
  operator_symbol: "<"
  inhibition: 30
- compound: "N#Cc1cc(CCCCc2cc(C#N)c3ccccc3c2)cc2ccccc12"
  unit_spec: "%"
  operator_symbol: "<"
  inhibition: 30
- compound: "Cc1onc(-c2ccccc2Cl)c1C(=O)NNc1cccc(C(F)(F)F)n1"
  unit_spec: "%"
  operator_symbol: "<"
  inhibition: 30
- compound: "CSc1scc2c1-c1n[nH]cc1CC2"
  unit_spec: "%"
  operator_symbol: "<"
  inhibition: 30
- compound: "NCCCNc1ccc2c3c(nn2CCNCCO)-c2c(O)ccc(O)c2C(=O)c13"
  unit_spec: "%"
  operator_symbol: "="
  inhibition: 80
- compound: "Oc1cc(C(F)(F)F)nc(SCc2ccccc2)n1"
  unit_spec: "%"
  operator_symbol: "="
  inhibition: 80
- compound: "OC(CN1CCN(Cc2c(F)cccc2Cl)CC1)Cn1ccc2ccccc21 (stereo not drawn)"
  unit_spec: "%"
  operator_symbol: "="
  inhibition: 50
- compound: "Cc1nn(Cc2nc(-c3ccc(Cl)cc3)cs2)c(C)c1Br"
  unit_spec: "%"
  operator_symbol: "="
  inhibition: 40
- compound: "CCC1(c2cccc(OC)c2)CCCC(=O)NC1 (stereo not drawn)"
  unit_spec: "%"
  operator_symbol: "<"
  inhibition: 30
- compound: "Clc1cc(Cl)c(N/N=C/c2cc(C#Cc3ccccc3)cs2)c(Cl)c1"
  unit_spec: "%"
  operator_symbol: "="
  inhibition: 50
- compound: "Cc1ccccc1NC(=O)NCc1cccs1"
  unit_spec: "%"
  operator_symbol: "="
  inhibition: 60
- compound: "CN(C)C=O.O=C(Nc1nnc(Sc2ccnc3cc(Cl)ccc23)s1)c1sc2ccccc2c1Cl"
  unit_spec: "%"
  operator_symbol: "="
  inhibition: 80
- compound: "CC(C)NC(=O)n1ccc(-c2nn(-c3ccc(F)cc3)ccc2=O)n1"
  unit_spec: "%"
  operator_symbol: "<"
  inhibition: 30
- compound: "COc1cc2c(cc1OC)C(c1cccc(C)c1)NCC2 (stereo not drawn)"
  unit_spec: "%"
  operator_symbol: "="
  inhibition: 60
- compound: "O=C(Nc1ccc(OC(F)(F)F)cc1)Nc1cc(-c2ccccc2)n[nH]1"
  unit_spec: "%"
  operator_symbol: "<"
  inhibition: 30
- compound: "Cc1c(-c2nc(-c3ccc([N+](=O)[O-])o3)no2)n(C)oc1=O"
  unit_spec: "%"
  operator_symbol: "<"
  inhibition: 30
- compound: "CN(C)c1cccc(N(C)C)c1CNC(=O)c1ccc(Cl)cc1"
  unit_spec: "%"
  operator_symbol: "="
  inhibition: 80
- compound: "Cc1cc2c(cc1C)CSC(C)(c1ccc(F)cc1)SC2"
  unit_spec: "%"
  operator_symbol: "<"
  inhibition: 30
- compound: "Cc1nnsc1C(=O)NCc1csc2ccc(Cl)cc12"
  unit_spec: "%"
  operator_symbol: "<"
  inhibition: 30
- compound: "N#Cc1c(Cl)cccc1Oc1ccc(S(=O)(=O)Nc2ccccc2)cc1"
  unit_spec: "%"
  operator_symbol: "="
  inhibition: 40
- compound: "CC(=O)N1N=C(c2ccccc2O)CC1c1ccc(Cl)cc1Cl (stereo not drawn)"
  unit_spec: "%"
  operator_symbol: "<"
  inhibition: 30
- compound: "Cc1cc(-c2nc(-c3ccc(C(C)(C)C)cc3)no2)no1"
  unit_spec: "%"
  operator_symbol: "="
  inhibition: 30

* * *

- target_desc: Transient receptor potential cation channel subfamily M member 7 (Mus musculus) (UniProt Q923J1)
- procedure_text: Inhibition of Tet-induced Flag-tagged mouse TRPM7 expressed in HEK293 cells assessed as inhibition of channel-mediated cell death in presence of Mg2+ incubated for 24 to 48 hrs by propidium iodide uptake assay
- Type: cell-based
- Set-up: concentration or dose not given beside the values
- run_parameters: concentration not given here

- compound: "CC(C)(C)c1cc(C(=O)/C(C#N)=N/Nc2cccc(Cl)c2)no1"
  unit_spec: "%"
  operator_symbol: "="
  inhibition: 70
- compound: "O=C(CSc1ssc(=S)c1-c1ccccc1)Nc1ccc(Cl)cc1"
  unit_spec: "%"
  operator_symbol: "<"
  inhibition: 30
- compound: "CC(C)(C)S(=O)(=O)/C(C#N)=C/N/N=C/c1ccccc1Cl"
  unit_spec: "%"
  operator_symbol: "<"
  inhibition: 30
- compound: "Cn1c(SCC(=O)Nc2cccc3nsnc23)nnc1C(F)(F)F"
  unit_spec: "%"
  operator_symbol: "<"
  inhibition: 30
- compound: "CC(=O)Nc1cc(C)ccc1C"
  unit_spec: "%"
  operator_symbol: "<"
  inhibition: 30
- compound: "O=C(CC12CC3CC(CC(C3)C1)C2)N1CCOCC1"
  unit_spec: "%"
  operator_symbol: "<"
  inhibition: 30
- compound: "O=c1c(Cc2ccc(Br)cc2)csc2ccccc12"
  unit_spec: "%"
  operator_symbol: "<"
  inhibition: 30
- compound: "Oc1cc(C(F)(F)F)nc2ccc(F)cc12"
  unit_spec: "%"
  operator_symbol: "="
  inhibition: 80
- compound: "CC(=O)CSc1nnc(CN2C(=O)CSc3ccc(C(F)(F)F)cc32)n1C"
  unit_spec: "%"
  operator_symbol: "<"
  inhibition: 30
- compound: "Clc1cccc2nnsc12"
  unit_spec: "%"
  operator_symbol: "="
  inhibition: 30
- compound: "COc1ccc2nnc(-c3ccc(C(F)(F)F)cc3)n2n1"
  unit_spec: "%"
  operator_symbol: "<"
  inhibition: 30
- compound: "O=C1CC(c2ccccc2)CC(=O)N1c1ccc(Oc2ccc(Cl)cc2)cc1"
  unit_spec: "%"
  operator_symbol: "<"
  inhibition: 30
- compound: "Cc1nc(-c2ccc(S(=O)(=O)Nc3cccc(S(N)(=O)=O)c3)s2)cs1"
  unit_spec: "%"
  operator_symbol: "<"
  inhibition: 30
- compound: "O=C1NC(=S)S/C1=C\\c1cccc([N+](=O)[O-])c1"
  unit_spec: "%"
  operator_symbol: "<"
  inhibition: 30
- compound: "C/C(=N\\Nc1c(C)cccc1Cl)c1ccc(Oc2ncc([N+](=O)[O-])s2)cc1"
  unit_spec: "%"
  operator_symbol: "<"
  inhibition: 30
- compound: "O=[N+]([O-])c1cccc(-c2ccc(/C=N/NC(=S)NCc3ccco3)o2)c1"
  unit_spec: "%"
  operator_symbol: "<"
  inhibition: 30
- compound: "CCCCCCCSc1nnc[nH]1"
  unit_spec: "%"
  operator_symbol: "="
  inhibition: 70
- compound: "N/C(=N\\OC(=O)c1ccc(OCC(F)(F)F)nc1)c1ccc(OC(F)(F)F)cc1"
  unit_spec: "%"
  operator_symbol: "<"
  inhibition: 30
- compound: "FC(F)(F)c1ccccc1NC(=S)N1CCCN(c2nc3ccc(Cl)cc3s2)CC1"
  unit_spec: "%"
  operator_symbol: "="
  inhibition: 60
- compound: "CCc1c(O)c2ccccc2n(C)c1=O"
  unit_spec: "%"
  operator_symbol: "="
  inhibition: 50
- compound: "N#CC(C#N)=CNc1cc(C(F)(F)F)ccc1N1CCCC1"
  unit_spec: "%"
  operator_symbol: "="
  inhibition: 40
- compound: "Cc1ccc(OC/C(N)=N/OC(=O)c2cc(C)on2)cc1"
  unit_spec: "%"
  operator_symbol: "<"
  inhibition: 30
- compound: "CC(C)c1ccc(NC(=O)c2c(-c3ccccc3)nnc3ccccc23)cc1"
  unit_spec: "%"
  operator_symbol: "<"
  inhibition: 30
- compound: "CSc1nc2c(c(/C=C/c3ccccc3)c1C#N)CCC2"
  unit_spec: "%"
  operator_symbol: "<"
  inhibition: 30
- compound: "COc1ccc(C(=O)Nc2c(-c3ccc(Br)cc3)c(C(F)(F)F)nn2C)cc1OC"
  unit_spec: "%"
  operator_symbol: "<"
  inhibition: 30
- compound: "COc1ccc(C2C3CCc4ccccc4C3=NN2CCOC(=O)Nc2ccc(Cl)cc2)cc1 (centres undefined)"
  unit_spec: "%"
  operator_symbol: "="
  inhibition: 60
- compound: "CNC(=O)c1cc([N+](=O)[O-])cc2c1-c1ccc([N+](=O)[O-])cc1C2=O"
  unit_spec: "%"
  operator_symbol: "<"
  inhibition: 30
- compound: "Cc1ccc(C(=O)Nc2cccnc2Oc2ccc(C(C)(C)C)cc2)cc1C"
  unit_spec: "%"
  operator_symbol: "="
  inhibition: 60
- compound: "O=c1c(-c2ccccc2)c(O)c2cccc3c4ccccc4n1c23"
  unit_spec: "%"
  operator_symbol: "="
  inhibition: 90
- compound: "O=C(c1sc2ccccc2c1Cl)N1CCc2ccccc2C1"
  unit_spec: "%"
  operator_symbol: "="
  inhibition: 70
- compound: "CCCSC(=S)c1c(C)nn(-c2ccc(C)cc2)c1O"
  unit_spec: "%"
  operator_symbol: "="
  inhibition: 50
- compound: "C/C=N/N(c1ccccc1)c1cc(-c2ccc(OC)cc2)c(C#N)c(=O)[nH]1"
  unit_spec: "%"
  operator_symbol: "="
  inhibition: 60
- compound: "CN(/N=C/Cc1nnnn1-c1ccc(Cl)cc1)c1ccccc1"
  unit_spec: "%"
  operator_symbol: "<"
  inhibition: 30
- compound: "O=C1NC(=S)S/C1=C/c1ccc(Cl)cc1Cl"
  unit_spec: "%"
  operator_symbol: "="
  inhibition: 40
- compound: "Cc1onc(-c2c(Cl)cccc2Cl)c1C(=O)Nc1cccc2nsnc12"
  unit_spec: "%"
  operator_symbol: "="
  inhibition: 30
- compound: "CN1c2ccsc2C(O)=C(C(=O)Nc2cccc(Cl)c2)S1(=O)=O"
  unit_spec: "%"
  operator_symbol: "<"
  inhibition: 30
- compound: "CC(=O)/C(C#N)=C/c1ccco1"
  unit_spec: "%"
  operator_symbol: "<"
  inhibition: 30
- compound: "Cc1cccn2cc(-c3ccccc3Cl)nc12"
  unit_spec: "%"
  operator_symbol: "="
  inhibition: 30
- compound: "O=[N+]([O-])C1=Cc2c(ccc3ccccc23)OC1c1c(Cl)cccc1Cl (centres undefined)"
  unit_spec: "%"
  operator_symbol: "="
  inhibition: 60
